# Tested on: NCI-H460 lung
# test_name: NCI-60 one-dose screen, 48 h (100 = growth as untreated, 0 = no growth, -100 = all killed)
# reported_conditions: 10 µM unless noted
Compounds without any hit were thinned out: in the full panel of roughly 83,000, 20% have a hit.
metric_name: growth (%)
A number alone suffices; assume %.

Example molecules with recorded growth:
molecule	growth (%)
OC1CCC(Cn2c(C(F)(F)F)cc3c(Cl)ncnc32)CC1 (configuration not stated)	-43.6
CN(C)c1nc(NCCNS(=O)(=O)c2ccc(C3=Nc4c(N)nc(N)nc4NC(c4ccc(C(F)(F)F)cc4)C3)cc2)nc(N2CCOCC2)n1 (configuration not stated)	35.6
O=C(Cn1c(-c2ccccc2)nc2ccccc21)N=Nc1c(O)[nH]c2ccc(Br)cc12	-29.9
Nc1ccc(-c2ccc3ncnc(N4CCc5cc(F)c(Cl)cc54)c3c2)cn1	25.6
CCOc1ccc2[nH]c(=O)c(C(c3nnnn3CC3CCCO3)N3CCN(Cc4ccccc4)CC3)cc2c1 (configuration not stated)	84.7
CC1=NN(C2=NC(=O)C(CC(=O)Nc3ccccc3C(F)(F)F)S2)C(c2ccc(N(C)C)cc2)C1 (configuration not stated)	39.6

Entry CN(C)c1ccc(/C=C/c2n(Cc3ccc4ccccc4c3)c3ccccc3[n+]2Cc2ccc3ccccc3c2)cc1 , growth reported as -75.9

Reported growth of CCCCCCCCCc1ccc(C(=O)Nc2cc(C)ccc2C(=O)OC)cc1 : 115

growth recorded for this molecule, C/C(=N\Nc1ccc(S(N)(=O)=O)cc1)c1cnn(-c2cc(=O)[nH]c3ccc(Br)cc23)c1C , is 77.9

// growth lookup, molecule = CN(C)c1nc(NCCNS(=O)(=O)c2ccc(C(=O)/C=C/c3ccc(F)cc3)cc2)nc(N2CCOCC2)n1 , result: 78.5

Lab note: COc1ccc(-c2cc(C(=O)Oc3ccc(C=O)cc3OC)nn2-c2ccc(S(C)(=O)=O)cc2)cc1 gave growth of 105

###

# System: KM12 colon
# test_name: NCI-60 one-dose screen, 48 h (100 = growth as untreated, 0 = no growth, -100 = all killed)
# reported_conditions: 10 µM unless noted
# Protocol: Growth inhibition of the KM12 human tumor cell line is measured as a screen for anti-cancer activity. Cells are grown in 96 well plates and exposed to the test compound for 48 hours. Compounds are tested at a single concentration, which is 10^-5 M for most compounds. The reported endpoint is percent growth (GI% or GIPRCNT), where numbers from 0 - 100% represent growth inhibition, and numbers from -100% - 0 represent cell death. For example, a value of 40 represents 60% growth inhibition. […]
About 83,000 compounds went through this panel and 20% of them were active in at least one assay; those are over-represented in the sample as a whole.
metric_name: growth (%)
# value in %; strip the unit string

Below, each entry is followed by its recorded growth result.
>>> print(df.to_string())
                                   compound  observed_measurement
0  Cc1[nH]nc2ccc3nc(-c4cnn(CCO)c4)c4c(c3c12)CCCC4                  18.8
1  CN(C)CCOc1ccc(C(=O)C2[C@H](c3ccc(Cl)cc3)[C@@H](c3ccccc3)NC23C(=O)Nc2ccc(Cl)cc23)cc1 (stereo partly drawn)                 -67.1
2  Cn1cc(-c2cc(N)n3nc(-c4c[nH]c5ccc(F)cc45)cc3n2)c2cc(Br)cnc21                  3.18
3  CCOc1ccccc1[C@H]1C(C(=O)c2ccc(Cl)cc2)C2(N[C@@H]1c1ccccc1)C(=O)Nc1ccc(Br)cc12 (stereo partly drawn)                 -9.26
4  COc1nc(N)ncc1-c1ccc2ncnc(N3CCc4cc(F)c(Cl)cc43)c2c1                    70
5  S=C(NCCc1ccccc1)Nc1ccc(OCc2nc3ccc(Cl)cc3[nH]2)cc1                  18.6
6  Cc1cc(C(NC(=O)C2CC3(CC(Nc4cccc5c4C(=O)N(C4CCC(=O)NC4=O)C5=O)C3)C2)c2ccc3c(c2)OC(F)(F)O3)c(O)c2ncccc12 (stereo not drawn)                  17.5

The reported value for CCOC(=O)/C(F)=C/C1CC1C(c1ccccc1)c1ccccc1 (stereo not drawn) in terms of growth is 83.5

###

# Tested on: SNB-75 CNS
# test_name: NCI-60 one-dose screen, 48 h
# reported_conditions: 10 µM unless noted
# Description: Growth inhibition of the SNB-75 human tumor cell line is measured as a screen for anti-cancer activity. Cells are grown in 96 well plates and exposed to the test compound for 48 hours. Compounds are tested at a single concentration, which is 10^-5 M for most compounds. The reported endpoint is percent growth (GI% or GIPRCNT), where numbers from 0 - 100% represent growth inhibition, and numbers from -100% - 0 represent cell death. For example, a value of 40 represents 60% growth inhibition. […]
The panel holds about 83,000 compounds, 20% with a hit somewhere; the sample as a whole holds those more often. The source made the active and inactive calls. The calls were made as follows: active = growth percent below 10; inactive = the rest.
Answer with one of the outcomes active, inactive

molecule	label_class
O=C1/C(=C/c2cnc(-c3ccccc3)s2)SC(=S)N1Cc1ccc2c(c1)OCO2	active
Cc1cccc(NCC(=O)N2CCN(c3ncnc4c3cnn4-c3ccccc3)CC2)c1	inactive
Cc1cc(C(NC(=O)C2CC3(CC(Nc4cccc5c4C(=O)N(C4CCC(=O)NC4=O)C5=O)C3)C2)c2ccc3c(c2)OC(F)(F)O3)c(O)c2ncccc12 (centres undefined)	inactive
COc1ccc(/C=C/C(=O)c2ccc(S(=O)(=O)NCCNc3nc(N(C)C)nc(N4CCOCC4)n3)cc2)cc1	inactive
OCCn1cc(-c2nc3ccc4[nH]ncc4c3c3c2CCCC3)cn1	inactive
CCc1ccccc1NC(=O)N/C(N)=N/c1nc2ccccc2s1	active

QUERY: Hello, I am checking results. What call was entered for Clc1ccc(CNc2nc(SCCN3CCOCC3)nc3c2cnn3CC(Cl)c2ccc(Br)cc2)cc1 (centres undefined) ?
RESULT: inactive

QUERY: Write down the call the test reported for this molecule. Item: Nc1nnc(-c2cncc(Br)c2)c(-c2c[nH]c3ccc(Cl)cc23)n1
RESULT: inactive

QUERY: Answer briefly: the call reported for CCOC(=O)/C(F)=C/C1CC1C1CCN(C(=O)OC(C)(C)C)CC1 (centres undefined) in this assay.
RESULT: inactive

QUERY: # lookup: test call for O=C(c1ccc(O)cc1)C1[C@H](c2ccccc2Br)[C@@H](c2ccccc2)NC12C(=O)Nc1ccccc12 (some centres undefined)
RESULT: inactive

QUERY: Per the records of this test, what outcome belongs to COc1ccc(SC2c3cc(OC)ccc3Oc3nc(N)c(C#N)c(N)c32)cc1 (centres undefined) ?
RESULT: inactive

QUERY: Any idea what this test logged for CCCSc1nnc(-c2sc3nc4ccccc4n3c2C)o1 ?
RESULT: inactive

QUERY: Test call for this molecule, please: O=C(Cc1c(-c2ccccc2[N+](=O)[O-])n(-c2ncnc3c2c(-c2ccccc2)c(-c2ccccc2)n3Cc2ccccc2)[nH]c1=O)c1ccc(Cl)c(Cl)c1
RESULT: inactive

QUERY: Hi, sorry to bother you, what did the test record for COC(=O)c1ccc(-c2c(-c3ccccc3)c(F)c3oc(C(=O)OC)c(N)c3c2-c2ccccc2)cc1 ?
RESULT: inactive

###

# Test system: IGROV1 ovarian
# test_name: NCI-60 one-dose screen, 48 h (100 = growth as untreated, 0 = no growth, -100 = all killed)
# reported_conditions: 10 µM unless noted
This is part of a sample that, as a whole, favours compounds with a hit. Of some 83,000 tested, about 20% had one in any assay.
Reported growth values for a set of compounds
Answer in %, number only, no unit symbol.

Record excerpt, results attached:
compound	metric_name	observed_measurement
O=C(CSc1nc2ccccc2c(=O)[nH]1)Nc1ccccc1C(=O)O	growth	109
COc1ccc2[nH]c(O)c(N=Nc3nc(-c4ccc(Cl)cc4)cs3)c2c1	growth	-3.99
N#CC1=C(c2cccs2)Nc2c(c(-c3ccccc3)nn2-c2ccccc2)C12C(=O)Nc1ccc(Cl)cc12 (centres undefined)	growth	24
Cc1ccc(C(=O)Nc2cc(-c3ccccc3)cc(C(F)(F)F)c2)cc1C#Cc1cnc2cccnn12	growth	93.1

// Cc1[nH]nc2ccc3nc(-c4cn[nH]c4C(F)(F)F)c4c(c3c12)CCCC4 : growth value = -42.4

###

# System: SN12C renal
# test_name: NCI-60 one-dose screen, 48 h (100 = growth as untreated, 0 = no growth, -100 = all killed)
# reported_conditions: 10 µM unless noted
# Description: Growth inhibition of the SN12C human tumor cell line is measured as a screen for anti-cancer activity. Cells are grown in 96 well plates and exposed to the test compound for 48 hours. Compounds are tested at a single concentration, which is 10^-5 M for most compounds. The reported endpoint is percent growth (GI% or GIPRCNT), where numbers from 0 - 100% represent growth inhibition, and numbers from -100% - 0 represent cell death. For example, a value of 40 represents 60% growth inhibition. […]
Compounds without any hit were thinned out: in the full panel of roughly 83,000, 20% have a hit.
Could you mark each record met if its growth falls strictly under 40%, and not met if it equals or exceeds it?

In [3]: df
Out[3]:
                                   compound  study_system  label_class
0  CC(Nc1ncnc2ccc(-c3ccc4oc(N)nc4c3)cc12)c1ccccc1 (centres undefined)   SN12C renal          met

QUERY: Bench note: check whether CN1C(=O)C(O)(CC(=O)c2cc3ccccc3oc2=O)c2ccccc21 (centres undefined) shows growth below 40%
RESULT: not met

QUERY: Consider O=c1ccc(Cn2c(C(F)(F)F)cc3c(Cl)ncnc32)c[nH]1 . Does its growth lie strictly below 40%?
RESULT: not met

QUERY: Is the reported growth for C#CCCCNCCNc1ccnc2cc(Cl)ccc12 strictly below 40%?
RESULT: not met

QUERY: In the record for COc1cc(C2CC(c3ccc(Cl)cc3)=Nc3c(N)nc(N)nc3N2)ccc1Oc1nc(Nc2ccc(F)cc2)nc(N(C)C)n1 (centres undefined) , is growth less than 40%?
RESULT: not met

QUERY: Field: below-cutoff. Rule: recorded growth strictly less than 40%. Subject: N/C(=N\c1nc2ccc([N+](=O)[O-])cc2s1)NC(=O)Nc1ccccc1Cl
RESULT: met

QUERY: Is growth strictly under 40% for the entry COc1ccc(-c2cc(C(=O)N=Nc3c(O)[nH]c4ccc(Cl)cc34)c3ccccc3n2)cc1OC ?
RESULT: not met

QUERY: For COc1ccc2oc(=O)c(-c3csc(N/N=C(\C)c4cc(OC)c(OC)c(OC)c4)n3)cc2c1 , is the recorded growth below the cut-off of 40%?
RESULT: not met

QUERY: A record lists COc1ccc(/C=C/c2nc3ccccc3c(=O)n2CC(=O)Nc2ccccc2)cc1 . Is its growth below 40%?
RESULT: met

QUERY: Answer whether the compound C[C@@H]1CN(c2ccc3ncc(C#Cc4cncc(C(=O)Nc5ccc(CN6CCN(C)CC6)c(C(F)(F)F)c5)c4)n3n2)C[C@@H](C)O1 has growth strictly less than 40%
RESULT: met

QUERY: Does the reported growth of the following compound sit strictly below 40%? CN(C)c1nc(NCCNS(=O)(=O)c2ccc(C(=O)/C=C/c3ccc(Cl)cc3)cc2)nc(N2CCOCC2)n1
RESULT: not met

QUERY: Is growth strictly under 40% for the entry Fc1cccc(CNc2nc(SCCN3CCOCC3)nc3c2cnn3CC(Cl)c2ccc(Br)cc2)c1 (centres undefined) ?
RESULT: met

QUERY: Answer whether the compound O=C(NC(=S)N1CCN(c2ncnc3c2cnn3-c2ccccc2)CC1)c1ccc(Br)cc1 has growth strictly less than 40%
RESULT: not met

QUERY: In plain terms, does O=C(c1ccc(O)cc1)C1[C@H](c2ccccc2Br)[C@@H](c2ccccc2)NC12C(=O)Nc1ccccc12 (some centres undefined) come in under 40% for growth?
RESULT: met
